Below, each entry is listed alongside its reported IC50.
Target: human TLR8 (Homo sapiens, UniProt Q9NR97)
Sequence (Q9NR97 27-1041): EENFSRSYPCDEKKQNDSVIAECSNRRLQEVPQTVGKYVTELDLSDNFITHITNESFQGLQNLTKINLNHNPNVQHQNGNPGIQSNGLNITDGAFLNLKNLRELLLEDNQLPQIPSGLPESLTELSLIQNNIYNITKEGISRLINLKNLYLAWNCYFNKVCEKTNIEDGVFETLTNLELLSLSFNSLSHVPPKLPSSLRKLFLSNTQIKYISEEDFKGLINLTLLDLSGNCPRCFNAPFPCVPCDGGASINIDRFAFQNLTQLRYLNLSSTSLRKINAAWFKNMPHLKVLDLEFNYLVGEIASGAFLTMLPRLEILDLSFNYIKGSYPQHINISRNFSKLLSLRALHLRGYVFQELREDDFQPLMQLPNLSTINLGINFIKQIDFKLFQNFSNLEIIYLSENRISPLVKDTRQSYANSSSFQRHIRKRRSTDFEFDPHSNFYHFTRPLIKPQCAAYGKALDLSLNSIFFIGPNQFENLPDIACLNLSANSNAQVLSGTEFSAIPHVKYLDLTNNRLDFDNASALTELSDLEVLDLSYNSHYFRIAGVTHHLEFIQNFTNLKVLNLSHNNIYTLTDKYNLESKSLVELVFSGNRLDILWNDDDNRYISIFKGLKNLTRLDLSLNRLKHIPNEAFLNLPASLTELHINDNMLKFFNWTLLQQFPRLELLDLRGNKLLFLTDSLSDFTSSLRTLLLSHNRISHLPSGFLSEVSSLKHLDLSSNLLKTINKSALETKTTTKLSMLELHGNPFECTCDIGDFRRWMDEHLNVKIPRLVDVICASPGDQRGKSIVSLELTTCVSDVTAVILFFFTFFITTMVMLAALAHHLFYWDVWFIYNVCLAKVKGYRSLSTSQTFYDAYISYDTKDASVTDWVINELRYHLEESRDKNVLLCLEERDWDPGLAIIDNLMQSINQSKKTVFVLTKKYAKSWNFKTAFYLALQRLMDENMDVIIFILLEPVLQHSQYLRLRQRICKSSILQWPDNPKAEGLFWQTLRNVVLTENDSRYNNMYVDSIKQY
Method Description: TLR8 inhibition reporter assay (HEK-Blue SEAP)
Measurement Setup: HEK-Blue cells overexpressing human TLR8, stimulated with R848 15.9 μM, 22 hour incubation
Reply with the number, then its unit.

Would you please look over these solved cases?
Cc1cc(-c2cc3[nH]nc(C4CCC(N5CCOCC5)CC4)c3cc2C(C)C)cn2ncnc12 (stereo not drawn) [Example 132]    0.1 nM
Cc1cc(-c2cc(C)c3ncnn3c2)cc2[nH]nc(OC3CCN(CC#N)CC3)c12    1.9 nM
Cc1cc2c(C3CCNCC3)n[nH]c2cc1-c1cc(C)c2nnnn2c1    15.5 nM
CCc1cc2c(C3CCN(CC(=O)N(C)C)CC3)n[nH]c2cc1-c1cc(C)c2ncnn2c1    0.4 nM
COC1CN(C2CCC(c3n[nH]c4cc(-c5cc(C)c6ncnn6c5)c(C(C)C)cc34)CC2)C1 (stereo not drawn) [Example 145]    0.8 nM

Switching to the query record.
Recorded IC50 for `Cc1cc(-c2cc3[nH]nc(N4CCN(C5CCOCC5)CC4)c3cc2C(C)C)cn2ncnc12` , please?
0.15 nM
